# experiment-description: yeast display, Sf9 membrane polyspecificity reagent, FACS + sequencing; frameworks hold sequencing errors
reported-metric: polyreactivity (PSR sort gate)

// below: answered sequences
1. QVQLVESGGGLVQAGGSLRLSCAASGRNFNYNAMGWYRQAPGKERELVAVISWSGRTYYADSVKGRFTISRDNAKNTVYLLMNSLKPEDTAVYYCNKRSYRVLYGYWGQGTQVTVSS : high polyreactivity
2. QVQLVESGGGLVQAGGSLRLSCAASGFIFSKNAMGWSRQAPGKERELVAAISYSGGSTYYADSVKGRFTISRDNAKNTVYLQMNSLKPEDTAVNYCAAGGIYAPSSEYDSWGQGTQVTVSS : low polyreactivity
3. QVQLVESGVGLVQAGGSLRLSCAASGSTFLTNAMGWNRQAPGKERELVAAINWRGDSTYYADSVKGRFTISRDNAKNTVYLQMNSLKPEDTAVYYCAAKYNHVTDEYDYWGQGTQVTVSS : high polyreactivity
4. QVQLVESGGGLVQAVGSLRLSCAASGRTSPRNAMGWYRQAPGKERELVAAINRTGGTTYYSDSVKGRFTISRDNAKNTVYLQMNSLIPEDTAVYYCAADVWVSTSGDWFRYDYWGQGTQVTVSS : high polyreactivity
5. QVQLVESGGGLVQAGGSLRLSCAASGITLGTYAMGWSRQAPGKERELVAGISTSGGSTYYADSVKGPFTISRDNAKNTVYLQMNSLKPEETAVYYCAKRRYGSGYYRYRGYDYWGQGTQVTVSS : high polyreactivity
6. QDQLGESGGGLVQAGGSLRLSCAASGSTFYAYAMGWYRQAPGKERELVATISWSGGSTYADCVKGRFTISRDNAKNTVYLQMNSLKPEDTPVYYCNAAGAFYPTQVHPGYTLWSYDYWGQGTQVTVSS : low polyreactivity
7. QVQLVESVGGLFQAGGSLRLSCDASGFTFTAYAMGWYIQAPGKERELVAAINWSGSRTYYADSVKGRFTISRDNAKNTVYLQMNSLKPEDTAVYYCNTATSKSSYRHYDYWGQGTQVTVSS : high polyreactivity
8. QVQLVESGGGLVQAGGSLRLSCAASGRTLRYYAMGWYRQAPGKDRELVASISIGGSTYYADSVKGRFTISRDNAKNTVYLQMTSLKPEDTAVYYGATDYSNSGYGYWGQGTQVTVSS : low polyreactivity

Could you now look at the following sequence, please?
Request: Fill in the blank: the reported polyreactivity (PSR sort gate) of QVQLVESGGGLVQAGGSLRLSCAASGLTFFRNAMGWYRQAPGKEREFVAGITSTDGSTYYADSVKGRFTISRDNAKNTVYLQMNSLKPEDTAVYYCAAAYRVRGRTYDSWGQGTQVTVSS is ____.
Response: high polyreactivity

====

# experiment-description: yeast display, Sf9 membrane polyspecificity reagent, FACS + sequencing; frameworks hold sequencing errors
reported-metric: polyreactivity (PSR sort gate)

1. QVQLVESGGGLVQAGGSLRLSCAASGFTYYHNVMGWYRQAPGKERELVAAISSGGDTTYYADSVKGRFTISRDNAKNTVSLQKNSLKPEDTAVYYCNADRQIGRYYHFDYWGQGTQVSVSS : high polyreactivity
2. QVQLVESGGVLVQAGGSLRLSCAASGRTFSVYTMGWYRQAPGKERELVASINWSGGRTYYADSVKGRFTISRDKAKNTVYLQMNSLKPEDTAVYYCAATGWRTLYDYWGQGTQVTVSS : high polyreactivity
